Hello, the source for this data is PubChem BioAssay AID1996, in case you need it.

Hi there, I'd appreciate the recorded solubility kinetic for every entry that follows.
settings: buffer; pH 7.4; 200.0 µM

Please look up its solubility kinetic: c1ccc(Nc2nc(-c3ccccc3)ns2)cc1
< 0.2 µg/mL

Moving on to the next molecule: COc1ccc(NS(=O)(=O)c2c(C)[nH]c(=O)[nH]c2=O)cc1OC
> 51.2 µg/mL

Moving on to the next molecule: O=C(Nc1ccc(Br)cc1)N1CCCC(O)C1 (configuration not stated)
> 44.9 µg/mL

Moving on to the next molecule: Cc1ccc(C)c(NC(=S)NCCCN2CCOCC2)c1
> 46.1 µg/mL

Moving on to the next molecule: CC(=O)N1CCN(C(=O)CNC(=O)c2ccc(C)s2)CC1
> 46.4 µg/mL

Moving on to the next molecule: O=C(NCC1CCCO1)c1cc(-c2ccc(F)cc2)no1 (configuration not stated)
> 43.5 µg/mL

Moving on to the next molecule: Cc1ccc(CN2CCC(CO)(CC3CCCCO3)CC2)o1 (configuration not stated)
> 46.1 µg/mL
